Hi there, I'd appreciate the recorded RP-LC retention time for every entry that follows.
- ASSAY_SUMMARY: gradient 5% acetonitrile 3 min, to 50% in 2 min, to 85% in 15 min, held 3 min, 100 µL/min
- CONDITION_LABEL: column: Zorbax Extend-C18 2.1 x 50 mm; eluents: water / acetonitrile, 0.1% formic acid
Field format: number, assumed s, no unit text.

In: For CS(=O)(=O)N1CCOc2ccc(NC(=O)C3CC3)cc2C1 , what is its reported RP-LC retention time?
Out: 696

In: Cool, now Clc1cccc(-c2nc3ccccn3c2Nc2ccc3c(c2)OCCO3)c1
Out: 715

In: Then Cn1nc(C(=O)Nc2onc3c2CSC3)ccc1=O ?
Out: 585

In: Also check Cc1cc(C(=O)N2CCc3nn(C)c(=O)n3CC2)n[nH]1
Out: 560

In: Now this one: O=C(CC1CCN(S(=O)(=O)c2ccc(Cl)s2)CC1)N1CCCCCC1
Out: 1000

In: Proceed to Cc1ccccc1Cn1cc(-c2ccncc2)cc1C(=O)NC(C)c1ccccn1 (stereo not given)
Out: 600

In: Now try O=C(NCc1ccccn1)C1CCCN(c2ccc3cc(S(=O)(=O)N4CCCC4)ccc3n2)C1 (stereo not given) .
Out: 585

In: For CCCCOc1ccc(-c2nc(C3CC(=O)N(c4ccc(OC)cc4)C3)no2)cc1 (stereo not given) then?
Out: 1200

In: Then this compound: CC1CCN(S(=O)(=O)c2ccc3nc(N4CCN(c5ccccn5)CC4)ccc3c2)CC1
Out: 691

In: What do you have for O=C(C1CCCCC1)N1CCCC1c1nc2ccccc2s1 (stereo not given) ?
Out: 966

====

- ASSAY_SUMMARY: gradient 5% acetonitrile 3 min, to 50% in 2 min, to 85% in 15 min, held 3 min, 100 µL/min
- CONDITION_LABEL: column: Zorbax Extend-C18 2.1 x 50 mm; eluents: water / acetonitrile, 0.1% formic acid
ATTRIBUTE_MEASURED: RP-LC retention time (s)
Return type: number; implicit unit s.

In: // returns reported RP-LC retention time for input COc1ccc(OC)c(NC(=O)CN2C(=O)CC(c3ccc(Cl)cc3)=Nc3cccnc32)c1
Out: 1040

In: Can you check CCn1nccc1C(=O)Nc1cc(-c2cc3cc(OC)ccc3n2CC)[nH]n1 next?
Out: 846

In: Another molecule to look at: CCCCN1C(=O)C(C)(C(=O)Nc2cccc(F)c2)Oc2cccnc21 (centres undefined)
Out: 924

In: Would you kindly repeat that for O=C(Cn1nc2c3cc(-c4ccc(F)cc4)nn3ccn2c1=O)Nc1ccc(Br)cc1F ?
Out: 989

In: Now give it for COc1ccc(C)cc1NC(=O)NCCNC(=O)c1ccc(NC(=O)C2CCCC2)cc1 too.
Out: 759

In: Same lookup for CCOC(=O)C1CCN(C(=O)C2CCCN(c3cnc4nccnc4c3)C2)CC1 (centres undefined) , please.
Out: 686

In: Now this one: COc1cccc(NC(=O)N2CCC(OC3CCN(S(C)(=O)=O)CC3)CC2)c1
Out: 731

In: Also CN(C)c1ccc(CNC(=O)c2cc3n(n2)CC(C)(C(=O)NCc2ccccc2)N(C)C3=O)cc1 (centres undefined) ?
Out: 607

In: Cool, now CCOCc1nc(C2CCCN(C(=O)NC(C)C)C2)no1 (centres undefined)
Out: 704

====

- ASSAY_SUMMARY: gradient 5% acetonitrile 3 min, to 50% in 2 min, to 85% in 15 min, held 3 min, 100 µL/min
- CONDITION_LABEL: column: Zorbax Extend-C18 2.1 x 50 mm; eluents: water / acetonitrile, 0.1% formic acid
ATTRIBUTE_MEASURED: RP-LC retention time (s)
Give the value, in units of s, as a plain number.

In: Name the recorded RP-LC retention time for Cc1cccc(-c2noc(-c3nn(CC(=O)NCc4cccs4)c4ccccc34)n2)c1 .
Out: 1140

In: Do the same for CCN(c1cccc(C)c1)S(=O)(=O)c1cc2n(c1)CCCNC2=O please
Out: 720

In: Field entry: CSc1ccc(CNC(=O)Cn2ccc3ccc(N4CCOCC4)nc32)cc1
Out: 958

In: Note, next up: CCOC(=O)c1ccc(NC(=O)N2CCc3nc[nH]c3C2)cc1
Out: 609

In: Cool, now CC(C)CCNC(=O)C1(C)Cn2nc(C(=O)NCCc3c[nH]c4ccccc34)cc2C(=O)N1C (centres undefined)
Out: 786

In: Would you kindly repeat that for O=C(Cn1ccc2ccc(N3CCOCC3)nc21)N1CCN(c2ccccc2Cl)CC1 ?
Out: 1060

In: How about CCN(CC)S(=O)(=O)c1cc(-c2nnc(-c3ccccc3Cl)o2)ccc1C ?
Out: 1130

In: // repeat for Cc1ccc(NC(=O)Cn2cc3c(n2)CCC(C)C3)c(C)c1 (centres undefined) and report
Out: 987

In: Also CCCNC(=O)C1CCCN(c2ccc(SCC(=O)Nc3cccc(C(=O)OCC)c3)nn2)C1 (centres undefined) , if possible.
Out: 741

====

- ASSAY_SUMMARY: gradient 5% acetonitrile 3 min, to 50% in 2 min, to 85% in 15 min, held 3 min, 100 µL/min
- CONDITION_LABEL: column: Zorbax Extend-C18 2.1 x 50 mm; eluents: water / acetonitrile, 0.1% formic acid
ATTRIBUTE_MEASURED: RP-LC retention time (s)
Field: numeric (s). Do not append units.

In: Query (compound): CCn1cc(CN2CC(Oc3ccc(-c4noc(-c5cccnc5)n4)cc3)C2)cn1 ; field requested: RP-LC retention time
Out: 635

In: And the next one, COC(=O)c1[nH]c(C)c(C(=O)CN(CC2CCCO2)C(=O)c2ccc(OC)cc2)c1C (stereo not given) ?
Out: 1030

In: Do the same for COc1ccc(CNC(=O)Cn2c(C)nc3onc(C)c3c2=O)cc1 please
Out: 711

In: Also need CCc1cccc(NC(=O)CN2C(=O)NC3(CCCCC3)C2=O)c1 , thanks.
Out: 805

In: How about this compound: Cn1cc(C(=O)NCc2ccccn2)c2cccnc21
Out: 552

In: Likewise for CC(C)n1nc(CNC(=O)Cc2ccsc2)c2ccccc21 ?
Out: 850

In: What do we get for CCCc1c(C(=O)O)nnn1Cc1ccc(OC)cc1 ?
Out: 710

In: Also CC1CCCN(c2ccc(-c3noc(CN4CCN(c5ccccc5F)CC4)n3)cn2)C1 (stereo not given) , if possible.
Out: 1090

In: What about COc1cccc(-c2noc(C3CCCN3C(=O)c3ccc(C)s3)n2)c1 (stereo not given) ?
Out: 997

In: Same thing, different compound: CCc1nnc(C2CCN(S(=O)(=O)c3cccnc3)CC2)s1
Out: 652

====

- ASSAY_SUMMARY: gradient 5% acetonitrile 3 min, to 50% in 2 min, to 85% in 15 min, held 3 min, 100 µL/min
- CONDITION_LABEL: column: Zorbax Extend-C18 2.1 x 50 mm; eluents: water / acetonitrile, 0.1% formic acid
ATTRIBUTE_MEASURED: RP-LC retention time
Note: a bare number is incomplete; add the unit.

In: Tell me the measured RP-LC retention time of CCn1cnc2ccc(-c3noc(-c4ccc(Cl)cc4)n3)cc21 , please.
Out: 863 s

In: Similarly, CCn1cnc2ccc(-c3noc(COc4cccc(C)c4)n3)cc21 ?
Out: 808 s

In: What about this compound? Cc1ccc(-c2nnc(-c3cccnc3N3CCC4(CC3)OCCO4)o2)cc1
Out: 962 s

In: How about this compound: CCc1nc2ccc(-c3noc(CNS(=O)(=O)c4ccccc4)n3)cc2n1CC
Out: 653 s

In: Check COc1ccc(NS(=O)(=O)c2cc3n(c2)CCCNC3=O)cc1 too.
Out: 615 s

In: Try this compound next: O=C1NC(C(=O)Nc2ccc3c(c2)OCCO3)Cn2cccc21 (stereo not given)
Out: 643 s

In: Next compound up: Cc1ccc(C)c(S(=O)(=O)N2CC[C@H](n3c(=O)n(C)c4cccnc43)C2)c1
Out: 892 s

In: // next record O=C(N[C@@H](Cc1c[nH]c2ccccc12)C(=O)O)c1cc2ccccc2o1
Out: 769 s

In: Repeat for the following compound: Cc1cc(N2CCN(C(=O)Nc3ccc(F)c(Cl)c3)CC2)nc(N2CCCC2)n1
Out: 701 s

In: Next: O=C(NCc1ccccc1)C1CC(=O)N(C2CN(Cc3ccc(C(F)(F)F)cc3)C2)C1 (stereo not given)
Out: 666 s

In: Subsequent entry: Cc1ccc(N2CCC(NC(=O)Cc3cccs3)C2=O)cc1 (stereo not given)
Out: 827 s

In: Moving on to the next compound: CN(C)c1nc2cc(C(=O)NC3CCCC3)sc2n1-c1ccc(F)cc1
Out: 1050 s

In: Here is the next compound: O=C([C@@H]1C[C@H](F)CN1C(=O)c1ccccc1F)N1CCCCC1
Out: 677 s

In: What about this compound? Cc1cc2c(c(=O)n(-c3ccc(F)cc3)c(=O)n2CC(=O)Nc2ccc(C(C)C)cc2)n1C
Out: 921 s

In: Note, next up: O=C(NC1CCN(C(=O)c2cc(-c3cccc(Cl)c3)n[nH]2)CC1)c1cccs1
Out: 718 s

In: Also need CN(CCc1noc(-c2ccc(Cl)cc2)n1)C(=O)c1ccc(C#N)cc1 , thanks.
Out: 908 s

In: Next entry: Cn1c(C(=O)NCCN2CCOCC2)cc2c(=O)oc3ccccc3c21
Out: 603 s

In: Another compound to check: Cc1ccc(-c2nnc(CC(=O)NC3CCCC3)o2)cc1
Out: 797 s

In: One more compound: COc1cc(NC(=O)CN2CCSc3ccccc32)cc(OC)c1OC
Out: 890 s

In: Next entry: CC(C)(C)OC(=O)COC(=O)c1cn(-c2ccc(F)cc2)c(=O)c2ccccc12
Out: 1140 s
